Sourced from PubChem BioAssay (NCI)

system: NCI-H322M lung; experiment: NCI-60 one-dose screen, 48 h (100 = growth as untreated, 0 = no growth, -100 = all killed); conditions: 10 µM unless noted
About 83,000 compounds went through this panel and 20% of them were active in at least one assay; those are over-represented in the sample as a whole.
assay endpoint: growth (%)
Numbers only; they are read as %.

Some molecules with recorded growth:
molecule	unit symbol	meas value
C=C(C)[C@@H]1C[C@@H]2Cc3cc(F)ccc3N1O2	%	104
O=[N+]([O-])c1ccc(Sc2ncccn2)c([N+](=O)[O-])c1	%	97.7
COc1ccc(/C=C2\CN(Cc3cn(CCNc4ccnc5cc(Cl)ccc45)nn3)C/C(=C\c3ccc(OC)c(OC)c3)C2=O)cc1OC	%	44.7

GET /values?readout=growth&item= Cc1ccc(-c2cc3nc(C(Cl)Cl)nc(-c4ccccc4C)n3n2)cc1
86.6

Likewise for CN1CCN(Cc2ccc(NC(=O)c3nc4ccc5[nH]ncc5c4c4c3CCC4)cc2C(F)(F)F)CC1 ?
-50.9

Likewise for CCCCCCCCN(CCCCCCCC)CCCCCCNc1cc(OC)cc2cccnc12 ?
88.5

Likewise for COc1cc(Nc2ncccc2C(=O)NCc2cn(Cc3cccc(Oc4ccccc4)c3)nn2)cc(OC)c1 ?
65.2

Likewise for COc1ccc(-c2cnnn2-c2nonc2-n2cccc2)cc1OC ?
96.8

Likewise for NC1=NC(SCc2ccccc2CCl)c2ncn(Cc3ccccc3CCl)c2N1 (stereo unspecified) ?
80.8

Likewise for COc1ccc(S(=O)(=O)n2ccc(-c3ccc4c(c3)CCC(C)(C)O4)n2)cc1OC ?
89.5

Likewise for COc1ccc(N=Cc2c(O)ccc3c2oc2cc(Cl)c(O)c(Cl)c23)cc1 ?
122

Likewise for COc1cccc(/C=C2\Oc3cc(OCCCN4CCCC4)ccc3C2=O)c1OC ?
92.8
